Data origin: patent US20240261274A1

- System name: Full length wild-type cereblon CRBN (Homo sapiens)
- Construct: Full length wild-type cereblon CRBN (80.0 nM, 10 μL) was incubated in assay buffer
- Measurement description: Fluorescence polarization (FP) assay indicating cereblon binding
- Measurement setup: Table 3B; read-out: rFP IC50
pIC50: −log10 of the molar value.
Would you kindly list pIC50 for each of these compounds?

Answer for every listed entry: what is its pIC50? The entries follow.
1. O=C1CCC(N2Cc3c(F)cc(COC(=O)Nc4ccc(-c5ccccc5)nc4)cc3C2=O)C(=O)N1 (stereo not drawn)
2. COc1cc(COC(=O)Nc2ccc(N3CCCCC3C)nc2)cc2c1CN(C1CCC(=O)NC1=O)C2=O (stereo not drawn)
3. COc1cc(COC(=O)Nc2cccc(OC(F)F)c2)cc2c1CN(C1CCC(=O)NC1=O)C2=O (stereo not drawn)
4. O=C1CCC(N2Cc3c(F)cc(COC(=O)Nc4cc(F)c(F)c(Cl)c4)cc3C2=O)C(=O)N1 (stereo not drawn)
5. COc1cc(COC(=O)Nc2ccc(N3CCC[C@@H]3C)nc2)cc2c1CN(C1CCC(=O)NC1=O)C2=O (stereo partly drawn)
6. CC1(C)COc2cc(NC(=O)OCc3cc(F)c4c(c3)C(=O)N(C3CCC(=O)NC3=O)C4)ccc21 (stereo not drawn)

Response:
1. < 5.72
2. ≥ 6.22
3. ≥ 6.22
4. < 5.72
5. ≥ 6.22
6. ≥ 6.22

Your task in this section: give pIC50 for each listed record.
1. Cc1ccc(NC(=O)OCc2ccc3c(c2Cl)C(=O)N(C2CCC(=O)NC2=O)C3)cc1Cl (stereo not drawn)
2. Cc1ccc(NC(=O)OCc2cc(Br)c3c(c2)C(=O)N(C2CCC(=O)NC2=O)C3)cc1Cl (stereo not drawn)
3. O=C1CCC(N2Cc3c(F)cc(COC(=O)Nc4cc(F)cc(Cl)c4)cc3C2=O)C(=O)N1 (stereo not drawn)

Response:
1. < 5.72
2. < 5.72
3. < 5.72

---

- System name: GSPT1 (Homo sapiens, UniProt P15170+Q96SW2)
- Sequence (P15170 whole entry): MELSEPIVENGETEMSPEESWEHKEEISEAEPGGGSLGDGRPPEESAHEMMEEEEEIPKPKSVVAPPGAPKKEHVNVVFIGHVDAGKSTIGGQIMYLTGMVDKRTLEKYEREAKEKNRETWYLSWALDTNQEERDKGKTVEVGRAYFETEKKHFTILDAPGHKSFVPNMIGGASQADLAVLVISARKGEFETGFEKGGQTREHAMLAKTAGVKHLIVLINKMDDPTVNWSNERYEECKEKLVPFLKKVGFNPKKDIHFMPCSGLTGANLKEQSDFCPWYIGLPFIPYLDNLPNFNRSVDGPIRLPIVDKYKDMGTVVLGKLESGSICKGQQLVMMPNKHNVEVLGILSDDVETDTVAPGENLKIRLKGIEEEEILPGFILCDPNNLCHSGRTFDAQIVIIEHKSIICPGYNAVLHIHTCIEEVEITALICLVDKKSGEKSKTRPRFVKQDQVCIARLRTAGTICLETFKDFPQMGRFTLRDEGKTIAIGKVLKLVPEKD
- Sequence (Q96SW2 whole entry): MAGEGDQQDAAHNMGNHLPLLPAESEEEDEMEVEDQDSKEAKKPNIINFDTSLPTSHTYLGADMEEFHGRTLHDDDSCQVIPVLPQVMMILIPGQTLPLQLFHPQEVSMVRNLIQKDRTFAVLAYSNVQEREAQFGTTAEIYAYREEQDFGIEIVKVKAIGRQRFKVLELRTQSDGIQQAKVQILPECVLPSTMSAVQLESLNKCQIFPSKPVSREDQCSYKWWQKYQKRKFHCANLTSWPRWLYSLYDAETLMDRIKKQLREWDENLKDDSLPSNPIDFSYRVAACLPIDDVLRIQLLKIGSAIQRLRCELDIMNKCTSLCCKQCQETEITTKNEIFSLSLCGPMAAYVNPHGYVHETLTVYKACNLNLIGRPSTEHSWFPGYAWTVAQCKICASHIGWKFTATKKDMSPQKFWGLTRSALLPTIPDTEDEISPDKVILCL
- Sequence (Q16531 whole entry partner): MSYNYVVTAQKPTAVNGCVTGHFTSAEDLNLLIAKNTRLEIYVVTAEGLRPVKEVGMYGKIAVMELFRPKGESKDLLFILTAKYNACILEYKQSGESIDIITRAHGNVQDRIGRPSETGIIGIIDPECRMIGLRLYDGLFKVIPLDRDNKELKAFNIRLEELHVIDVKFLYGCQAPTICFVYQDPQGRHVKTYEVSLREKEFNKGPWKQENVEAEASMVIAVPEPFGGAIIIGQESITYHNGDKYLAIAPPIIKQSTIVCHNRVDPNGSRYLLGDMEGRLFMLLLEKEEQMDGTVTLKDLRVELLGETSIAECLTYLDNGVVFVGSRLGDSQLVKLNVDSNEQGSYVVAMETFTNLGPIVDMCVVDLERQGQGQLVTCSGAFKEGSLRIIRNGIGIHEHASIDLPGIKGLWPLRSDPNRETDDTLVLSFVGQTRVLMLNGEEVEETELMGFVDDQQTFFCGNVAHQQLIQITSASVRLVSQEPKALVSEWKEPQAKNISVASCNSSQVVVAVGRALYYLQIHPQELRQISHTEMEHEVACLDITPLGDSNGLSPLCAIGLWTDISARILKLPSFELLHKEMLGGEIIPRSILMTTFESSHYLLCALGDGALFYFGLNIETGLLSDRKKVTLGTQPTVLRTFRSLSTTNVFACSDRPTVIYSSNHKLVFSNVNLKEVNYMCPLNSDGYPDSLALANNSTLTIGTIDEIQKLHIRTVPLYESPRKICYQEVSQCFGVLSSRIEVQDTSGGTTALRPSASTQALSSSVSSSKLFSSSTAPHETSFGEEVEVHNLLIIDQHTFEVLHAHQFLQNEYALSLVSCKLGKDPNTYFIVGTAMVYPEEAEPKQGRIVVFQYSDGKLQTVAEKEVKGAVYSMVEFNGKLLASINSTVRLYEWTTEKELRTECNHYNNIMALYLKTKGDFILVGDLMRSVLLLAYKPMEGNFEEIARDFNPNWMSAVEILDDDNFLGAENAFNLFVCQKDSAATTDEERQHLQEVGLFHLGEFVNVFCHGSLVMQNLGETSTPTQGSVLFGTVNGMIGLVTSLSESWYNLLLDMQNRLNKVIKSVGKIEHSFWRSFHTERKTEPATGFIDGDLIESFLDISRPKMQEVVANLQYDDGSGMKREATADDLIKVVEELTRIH
- Measurement description: GSPT1 degradation immunofluorescence assay in CAL-51 cells
- Type: cell-based
- Set-up: endogenous in cells; host or cells: CAL-51 (DSMZ ACC302)
- Measurement setup: 6 hours, Table 5B, read-out: Activity for GSPT1 degradation, Code (DC50)
Property: DC50

Please review the following examples before continuing.
Molecule	Endpoint result
CC(C)(C)c1ccc(NC(=O)OCc2cc(F)c3c(c2)C(=O)N(C2CCC(=O)NC2=O)C3)cc1 (stereo not shown)	30 to 300 nM
COc1c(COC(=O)Nc2ccc(C)c(Cl)c2)ccc2c1C(=O)N(C1CCC(=O)NC1=O)C2 (stereo not shown)	> 300 nM
COc1cc(COC(=O)Nc2ccc(N3CCC[C@@H]3C)nc2)cc2c1CN(C1CCC(=O)NC1=O)C2=O (stereo partly shown)	30 to 300 nM

Now for the molecule whose DC50 we want.
// field: DC50; key: O=C1CCC(N2Cc3c(F)cc(COC(=O)Nc4ccc(F)c(Cl)c4)cc3C2=O)C(=O)N1 (stereo not shown) ; value = 30 to 300 nM

---

- System name: GSPT1 (Homo sapiens, UniProt P15170+Q96SW2)
- Measurement description: GSPT1 degradation immunofluorescence assay in CAL-51 cells
- Assay type: cell-based
- Design: endogenous in cells; host or cells: CAL-51 (DSMZ ACC302)
- Measurement setup: 6 hours, Table 4, read-out: Activity for GSPT1 degradation, Code (DC50)
Property: DC50

For each of the items listed, what is its DC50?
1. O=C1CCC(N2Cc3ccc(CNC(=O)Nc4ccc(Br)cc4)cc3C2=O)C(=O)N1 (centres unmarked) [Compound 9]
2. Cc1c(Cl)cc(NC(=O)NCc2ccc3c(c2)C(=O)N(C2CCC(=O)NC2=O)C3)cc1CN1CC2CC1CO2 (centres unmarked) [Compound 139]
3. Cc1ccc(NC(=O)NCc2ccc3c(c2)C(=O)N(C2CCC(=O)NC2=O)C3)cc1Cl (centres unmarked) [Compound 8]
4. Cc1c(Cl)cc(NC(=O)NCc2ccc3c(c2)C(=O)N(C2CCC(=O)NC2=O)C3)cc1CN1C2CCC1COC2 (centres unmarked) [Compound 138]

Response:
> 300 nM
≤ 100 nM
≤ 100 nM
≤ 100 nM

Short answer for CN(C)CC(=O)Oc1cccc(CNC(=O)NCc2ccc3c(c2)C(=O)N(C2CCC(=O)NC2=O)C3)c1 (centres unmarked) [Compound 136] : DC50 was > 300 nM

---

Exercise: for every item that follows, state its recorded IC50.
- System name: Full length wild-type cereblon CRBN (Homo sapiens, UniProt Q96SW2)
- Construct: Full length wild-type cereblon CRBN (80.0 nM, 10 μL) was incubated in assay buffer
- Sequence (Q96SW2 whole entry): as the sequence (Q96SW2 whole entry) above
- Measurement description: Fluorescence polarization (FP) assay indicating cereblon binding
- Measurement setup: Table 3B; read-out: rFP IC50
- Description: Compound activity was monitored in a fluorescence polarization (FP) homogeneous assay using 1-[5-({2-[2-(2-{[2-(2,6-dioxopiperidin-3-yl)-1,3-dioxo-2,3-dihydro-1H-isoindol-4-yl]oxy}acetamido)ethoxy]ethyl}carbamoyl)pentyl]-3,3-dimethyl-2-[(1E,3E)-5-[(2E)-1,3,3-trimethyl-5-sulfo-2,3-dihydro-1H-indol-2-ylidene]penta-1,3-dien-1-yl]-3H-indol-1-ium-5-sulfonate as a fluorescent probe. Unless otherwise stated, all reagents were purchased from Sigma Aldrich. […]

// solved cases for IC50 follow
Molecule	Endpoint result
COc1cc(COC(=O)Nc2ccc(C(C)(C)C)nc2)cc2c1CN(C1CCC(=O)NC1=O)C2=O (stereo not shown)	≤ 600 nM
Cc1ccc(NC(=O)OCc2ccc3c(c2F)C(=O)N(C2CCC(=O)NC2=O)C3)cc1Cl (stereo not shown)	> 1900 nM
Cc1ccccc1-c1ccc(NC(=O)OCc2cc(F)c3c(c2)C(=O)N(C2CCC(=O)NC2=O)C3)cn1 (stereo not shown)	≤ 600 nM
O=C1CCC(N2Cc3c(F)cc(COC(=O)Nc4cc(F)cc(OC(F)(F)F)c4)cc3C2=O)C(=O)N1 (stereo not shown)	> 1900 nM

For every listed record, write down its IC50.
1. COc1cc(COC(=O)Nc2cc(F)cc(OC(F)F)c2)cc2c1CN(C1CCC(=O)NC1=O)C2=O (stereo not shown)
2. O=C1CCC(N2Cc3c(F)cc(COC(=O)Nc4cccc(OC(F)(F)F)c4)cc3C2=O)C(=O)N1 (stereo not shown)
3. COc1cc(COC(=O)Nc2cc(C)cc(C)c2)cc2c1CN(C1CCC(=O)NC1=O)C2=O (stereo not shown)

Response:
1. 600 to 1200 nM
2. > 1900 nM
3. ≤ 600 nM

---

- System name: IKZF3 (Homo sapiens, UniProt Q96SW2+Q9UKT9)
- Construct: endogenous in cells; host or cells: MM1 S (ATCC CRL-2974)
- Sequence (Q9UKT9 whole entry, one chain of several): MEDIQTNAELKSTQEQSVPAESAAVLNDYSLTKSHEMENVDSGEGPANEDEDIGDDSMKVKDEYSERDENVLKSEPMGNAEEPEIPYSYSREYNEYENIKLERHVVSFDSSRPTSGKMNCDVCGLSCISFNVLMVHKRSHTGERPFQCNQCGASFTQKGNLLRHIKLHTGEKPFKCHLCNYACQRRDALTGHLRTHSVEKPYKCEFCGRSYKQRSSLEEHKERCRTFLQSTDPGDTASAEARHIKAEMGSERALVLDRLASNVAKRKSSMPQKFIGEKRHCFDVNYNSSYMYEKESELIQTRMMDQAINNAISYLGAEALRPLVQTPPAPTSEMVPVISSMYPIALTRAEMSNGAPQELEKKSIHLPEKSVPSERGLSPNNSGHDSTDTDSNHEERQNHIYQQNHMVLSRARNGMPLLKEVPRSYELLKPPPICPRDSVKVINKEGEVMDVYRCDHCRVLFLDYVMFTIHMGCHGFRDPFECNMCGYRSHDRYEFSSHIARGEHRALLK
- Measurement description: Selectivity western blot assay in MM1 S cells, IKZF3
- Format: cell-based
- Set-up: key: A represents no degradation observed at 30 μM; B represents trace degradation at 30 μM (below 20%); C represents weak degradation at 30 μM (below 50%); D represents degradation at 30 μM (>90%); E represents degradation at 3 μM (>90%); F represents degradation at 0.3 μM (>90%)
- Measurement setup: MM1 S cells, 0.3, 3 and 30 μM, 6 hours

Compound	IKZF3 degradation
CCc1ncc(NC(=O)OCc2ccc3c(c2)C(=O)N(C2CCC(=O)NC2=O)C3)cc1C (stereo not shown)	A
Cc1cc(C)c(NC(=O)NCc2ccc3c(c2)C(=O)N(C2CCC(=O)NC2=O)C3)cc1Cl (stereo not shown)	A
O=C1CCC(N2Cc3ccc(COC(=O)Nc4cccc(OC(F)(F)F)c4)cc3C2=O)C(=O)N1 (stereo not shown)	A

---

- System name: CK1alpha (Homo sapiens, UniProt P48729+Q96SW2)
- Construct: endogenous in cells; host or cells: MM1 S (ATCC CRL-2974)
- Sequence (P48729 whole entry, one chain of several): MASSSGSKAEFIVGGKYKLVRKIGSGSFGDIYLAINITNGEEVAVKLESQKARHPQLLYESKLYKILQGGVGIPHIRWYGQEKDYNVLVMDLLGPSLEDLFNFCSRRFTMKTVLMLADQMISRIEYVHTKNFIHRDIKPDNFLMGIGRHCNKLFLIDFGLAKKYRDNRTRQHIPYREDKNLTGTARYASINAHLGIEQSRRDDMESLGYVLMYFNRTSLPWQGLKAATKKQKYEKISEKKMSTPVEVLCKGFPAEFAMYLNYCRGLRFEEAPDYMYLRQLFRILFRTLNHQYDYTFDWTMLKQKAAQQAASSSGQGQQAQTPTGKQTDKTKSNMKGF
- Measurement description: Selectivity western blot assay in MM1 S cells, CK1alpha
- Assay type: cell-based
- Parameters: key: A represents no degradation observed at 30 μM; B represents trace degradation at 30 μM (below 20%); C represents weak degradation at 30 μM (below 50%); D represents degradation at 30 μM (>90%); E represents degradation at 3 μM (>90%); F represents degradation at 0.3 μM (>90%)
- Measurement setup: MM1 S cells, 0.3, 3 and 30 μM, 6 hours

Compound	CK1alpha degradation
Cc1ccc(NC(=O)NCc2ccc3c(c2)C(=O)N(C2CCC(=O)NC2=O)C3)cc1Cl (stereo not drawn)	A
Cc1ccc(NC(=O)NCc2ccc3c(c2)C(=O)N(C2CCC(=O)NC2=O)C3)c(Cl)c1Cl (stereo not drawn)	A

---

- System name: GSPT1 (Homo sapiens, UniProt P15170+Q96SW2)
- Measurement description: GSPT1 degradation immunofluorescence assay in CAL-51 cells
- Type: cell-based
- Design: endogenous in cells; host or cells: CAL-51 (DSMZ ACC302)
- Measurement setup: 6 hours, Table 5B, read-out: Activity for GSPT1 degradation, Code (DC50)
Property: DC50

Compound	DC50
COc1cc(COC(=O)Nc2cc(F)cc(OC(F)F)c2)cc2c1CN(C1CCC(=O)NC1=O)C2=O (stereo not drawn)	≤ 30 nM

Would you be so kind as to report DC50 for each listed record?
1. O=C1CCC(N2Cc3c(F)cc(COC(=O)Nc4cc(F)cc(Cl)c4)cc3C2=O)C(=O)N1 (stereo not drawn)
2. O=C1CCC(N2Cc3c(F)cc(COC(=O)Nc4cc(F)c(-c5ccccc5)c(F)c4)cc3C2=O)C(=O)N1 (stereo not drawn)

Response:
30 to 300 nM
30 to 300 nM
